molecular target: human CD123 (IL3RA) on cells (human) (UniProt P26951); assay: flow cytometry, THP-1 cells, 3 µg antibody
Sequence (P26951 19-378): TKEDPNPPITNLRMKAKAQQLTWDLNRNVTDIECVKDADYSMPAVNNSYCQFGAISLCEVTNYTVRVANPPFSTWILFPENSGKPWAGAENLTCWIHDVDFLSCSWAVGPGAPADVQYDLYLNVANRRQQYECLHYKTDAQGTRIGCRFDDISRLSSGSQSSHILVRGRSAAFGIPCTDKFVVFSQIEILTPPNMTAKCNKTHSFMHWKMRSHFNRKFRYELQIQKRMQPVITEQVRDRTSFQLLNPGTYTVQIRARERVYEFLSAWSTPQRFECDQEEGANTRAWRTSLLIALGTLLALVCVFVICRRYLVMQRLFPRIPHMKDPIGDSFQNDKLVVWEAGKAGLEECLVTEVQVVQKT
// values below are reported % FITC positive Cells

Fill in the blank: the reported % FITC positive Cells of CODV-Fab BFX-9B8-G6 × CD3 (bispecific antibody, part only; not given: anti-CD3 arm, linkers, constant domains, V domains shown, not shown: another chain or arm of the molecule; a dimerising Fc or GST; small tags and cut ends) VL: DIVMTQSPSSLAVSAGETVTINCKSSQSFLSSGDERNYVAWYQHKPGQSPKLLIYWASTRHSGVPDRFIGSGSGTDFTLTISSVQAEDLAIYYCQQYYDTPLTFGSGTKLEIK VH: EVKLQESGPSLVQSSQTLSLTCTVSGFSLTSYHIHWVRQPPGKGLEWMGVMWSDGDTSYSSALKSRLSISRDTSQSQVFLKMNSLQTEDTATYYCARGDYSSYIYLWFAYWGQGTLVTVSS is ____.
48.8%

Fill in the blank: the reported % FITC positive Cells of CODV-Fab BFX-2F8-D6 × CD3 (bispecific antibody, part only; not given: anti-CD3 arm, linkers, constant domains, V domains shown, not shown: another chain or arm of the molecule; a dimerising Fc or GST; small tags and cut ends) VH: QVQLKESGPGLVQPSQTLSLTCTVSGFSLTSYGVSWVRQPPGKGLEWIATISSAGSTYYDLVLKSRLSITRDTSKSQVFLKVHSLQTEDTAIYLCARDAPVFNYGSYNAMDSWGQGTSVTVSS VL: DIQMTQSPSFLSATVGDRVTINCKASQNINKYLNWYQQKLGEAPKRLIYNTNSLQTGIPSRFSGSGSGTDYTLTISSLQPEDVATYFCLQHKSGLTFGSGTKLEIK is ____.
24%

Fill in the blank: the reported % FITC positive Cells of CODV-Fab BFX-9F6-G3 × CD3 (bispecific antibody, part only; not given: anti-CD3 arm, linkers, constant domains, V domains shown, not shown: another chain or arm of the molecule; a dimerising Fc or GST; small tags and cut ends) VL: DIQMTQSPASLSASLGETVTIECRPSEDIHSNVAWYQQKPGNSPQLLIYDASNLADGVPSRFSGSGSGTQYSLKINSLQSEDVASYFCHQYNIYPYTFGSGTKLELK VH: QVQLQESGPTLVKPGDSVKMSCKASGYTFTDYIIHWVKQSHGKSLEWIGYINPYSDGTNYNEKFKSKATLTVDKSTSTAYMEFSRLTSEDSAIYFCALNYGSYYAMDAWGQGTSVTVSS is ____.
99.7%

Fill in the blank: the reported % FITC positive Cells of CODV-Fab BFX-9D7-C8 × CD3 (bispecific antibody, part only; not given: anti-CD3 arm, linkers, constant domains, V domains shown, not shown: another chain or arm of the molecule; a dimerising Fc or GST; small tags and cut ends) VL: DIVMTQSPSSLAVSEGETVTINCKSSQSFLSSGDGKNYVAWYQYKPGQSPKLLIYWASTRQSGVPDRFIGSGSGTDFTLTISTVQAEDLAIYYCQQYYDTPLTFGSGTKLEIK VH: EVKLQESGPSLVQSSQTLSLTCTVSGFSLTSYHIHWVRQTPGKGLEWMGVMWSDGDTSYNSALKSRLSISRDTSQSQVFLKMNSLQTEDTATYYCARGYYSSYLYLWFAYWGQGTLVTVSS is ____.
88.7%
